- test description: protein stability index of a GFP-peptide fusion (GPS, HEK-293T) (PSI 1-6); higher = more stable;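 note: 24-mer peptide tiles fused after GFP, lentivirally expressed, FACS-sorted into six equal bins by GFP/DsRed ratio, decoded by Illumina sequencing, PSI is the read-weighted mean bin number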
- assay setup: treatment: DMSO; c terminus: a fixed tail appended
Entries and their measured protein stability index follow.
Respond with the number and no other words.

A selection of reference data follows.
1) KNIIHKTSGKRYVYRFVCDLQNLL [ETS2]	2.96
2) SGRSGHNTRGTGSSSSGVLMVGPN [CSNK1G3]	4.13
3) DLRSGTLYSLTLYGLRGPHKADSI [TNXB]	2.16
4) LVQTTDFFYPLVEDPYMMGRIACA [SEPHS2]	2.34
5) QLLLQFERLVVLDYIIRNTDRGND [PI4K2A]	2.98

Enquiry: Any idea what protein stability index was measured for RVSNPGRLAELLLLETDAGPAASE [GADD45A] ?
Return: 4.46

Enquiry: Any idea what protein stability index was measured for INQPLPDLKNVKSKIGSTDNIKYQ [MAP2] ?
Return: 4.29

----------
- test description: protein stability index of a GFP-peptide fusion (GPS, HEK-293T) (PSI 1-6); higher = more stable
- assay setup: treatment: MLN4924 1 uM, 8 h; c terminus: a fixed tail appended
Group membership follows protein stability index per the scheme small value = under 3, mid value = from 3 up to 4, large value = 4 and over

Enquiry: Which class is correct for the following sequence? VTHREGAPPLPGAESFPGSQVMGS [PLEKHN1]
Return: large value

Enquiry: Which class is correct for the following sequence? MQRMIQQFAAEYTSKNSSTQDPSQ [LCOR]
Return: mid value

Enquiry: Which class is correct for the following sequence? REDITEPAICALRHLTSRHQEAEM [CTNNB1]
Return: large value

Enquiry: Which class is correct for the following sequence? CYRENTHQTLKCSALATQYMHCVN [CHCHD3]
Return: small value

Enquiry: Which class is correct for the following sequence? MHGNEALGRELMLQLSEFLCEEFR [CPN1]
Return: small value

Enquiry: Which class is correct for the following sequence? KYLTYDQLRKQKKKTGKSSTTALG [ELOA2]
Return: mid value

----------
- test description: protein stability index of a GFP-peptide fusion (GPS, HEK-293T) (PSI 1-6); higher = more stable
- assay setup: treatment: MLN4924 1 uM, 8 h; c terminus: a fixed tail appended
Tag: yes if measured protein stability index is not below 3, no if it is.

Enquiry: Check the entry DSGFLGLRPTSVDPALRRRRRGPR [NOP53] : does protein stability index equal or exceed 3?
Return: yes

Enquiry: Check the entry LVLVVNTLRRIQASMAPAAALPPV [SERTAD1] : does protein stability index equal or exceed 3?
Return: no

Enquiry: Check the entry RAMRYYYKREILERVDGRRLVYKF [ELF3] : does protein stability index equal or exceed 3?
Return: no

Enquiry: Check the entry DWGPCSGSCGQGRTIRHVYCKTSD [ADAMTSL2] : does protein stability index equal or exceed 3?
Return: yes

Enquiry: Check the entry CLPPEPSPDDPESVKIIFKLPNDS [FAF2] : does protein stability index equal or exceed 3?
Return: yes

----------
- test description: protein stability index of a GFP-peptide fusion (GPS, HEK-293T) (PSI 1-6); higher = more stable
- assay setup: treatment: DMSO; c terminus: a fixed tail appended
Tag: Criterion met if measured protein stability index is not below 3, Criterion not met if it is.

Sample answers from the record:
1. VTETEETQEKKAESKEPIEEEPTG [SDE2]	Criterion met
2. RDTTGVSQMFPSSKARTKSLLGDD [FBF1]	Criterion met
3. TSQGQVRMRLFGQRCQKCSWSQYE [RTP4]	Criterion not met
4. PLSWAPCGPIAGSRQALSFEVPPC	Criterion met
5. SPSKSFWTRITCAEEGWSPTPKCL [CFHR2]	Criterion not met
6. RWMGLACFRSLAASSPSIRQKKLM [CCDC70]	Criterion not met

Enquiry: Check the entry LKPRPEPPKKPSNWRRKHEEFIAT [ZC2HC1A] : does protein stability index equal or exceed 3?
Return: Criterion met

Enquiry: Check the entry PKKPIGGNIIAHASTTRLYLRKGR [RAD51] : does protein stability index equal or exceed 3?
Return: Criterion met

Enquiry: Check the entry HNRKKHLNGLQHLKAKKVWYDMFR [ZMAT5] : does protein stability index equal or exceed 3?
Return: Criterion not met

Enquiry: Check the entry EESEPGTLVGNVAQDLGLKMTDLL [PCDHGC5] : does protein stability index equal or exceed 3?
Return: Criterion met

----------
- test description: protein stability index of a GFP-peptide fusion (GPS, HEK-293T) (PSI 1-6); higher = more stable
- assay setup: treatment: MLN4924 1 uM, 8 h; c terminus: a fixed tail appended
Entries and their measured protein stability index follow.
Respond with the number and no other words.

A selection of reference data follows.
1. LDSSEGSSQEDEDLGLSEGSSQDS [SPANXN3]	5.64
2. QHLDPQGAQELLEFTIRDLQRLGE [INTS4]	3.81
3. TPNASSPGNPTALANGTVQAPKQK [LPCAT4]	5.43
4. AKKGRRNQSVEPKKEEPEPETEAV [ZMYND11]	5.66
5. LLRFAQVFSQMIHLNETVKAPDIE [FEM1B]	2.46

Enquiry: Any idea what protein stability index was measured for VLRVEQQPHLPLLSTLAGIRVMVH [SCNN1D] ?
Return: 2.26

Enquiry: Any idea what protein stability index was measured for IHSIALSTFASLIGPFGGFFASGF [CDS2] ?
Return: 2.99

Enquiry: Any idea what protein stability index was measured for SNLSTRDASILTEMPTQPGKPLIP [NETO1] ?
Return: 4.57

Enquiry: Any idea what protein stability index was measured for LTLKVCKPQAPQKLDPTLSSCFFI ?
Return: 2.3

Enquiry: Any idea what protein stability index was measured for GCKGFFRRSMKRKALFTCPFNGDC [VDR] ?
Return: 2.21

----------
- test description: protein stability index of a GFP-peptide fusion (GPS, HEK-293T) (PSI 1-6); higher = more stable
- assay setup: treatment: DMSO; c terminus: a fixed tail appended
Tag: t if measured protein stability index is not below 5, f if it is.

1) SYSREHEGRLRYPSRREPPPRRSR [CLK3]	t
2) QEKKRKFLESTDSFNNELKRLCGL [SMARCE1]	f
3) VDWDEEYPPQMGEEYSQIIYSTKL [BTBD10]	f
4) LWSDPMAQEGCKANTIRGGGCYFG [PPEF2]	f
5) NGDVSAPSAILRTPESTKPGPVCQ [ANKRD40]	f

Please look at the following sequence next.
Enquiry: Check the entry TLCAVLERDTLSIRESRLFGAVVR [BTBD1] : does protein stability index equal or exceed 5?
Return: f

----------
- test description: protein stability index of a GFP-peptide fusion (GPS, HEK-293T) (PSI 1-6); higher = more stable
- assay setup: treatment: DMSO; c terminus: a fixed tail appended
Entries and their measured protein stability index follow.
Respond with the number and no other words.

A selection of reference data follows.
1. PKVEYVWRNIILMSLLHLGALYGI [SCD]	3.26
2. SLSPSPLGSSAASTALERPSFLSQ [FCHO1]	4.09
3. HGNSGHPLVLSYIDLSAWCYYCQA [HDAC6]	2.73

// moving on: another record for protein stability index
Enquiry: Any idea what protein stability index was measured for LCSSPLEAETPPNGPDCGYGSFHQ [ATE1] ?
Return: 4.28

----------
- test description: protein stability index of a GFP-peptide fusion (GPS, HEK-293T) (PSI 1-6); higher = more stable
- assay setup: treatment: MLN4924 1 uM, 8 h; c terminus: a fixed tail appended
reported property: protein stability index
Respond with the number and no other words.

A selection of reference data follows.
1) ASSASLEPMWSGSTMRRMALRPTA [EMID1]	3.64
2) CDALRTLAEARRLFPGRVSVDLML [RSAD1]	2.03
3) TTARERPCVRPGVSGSPVTQNHAA [FBF1]	4.51
4) LDLAGNNIPGDVLRAVEQAMGHSQ [LRRC45]	4.44
5) HNQIAIYAHQPRTADEIPMEPGDI [FUT8]	4.52

Enquiry: Any idea what protein stability index was measured for TLCQFPETLLGDPKRRMRYFDPLR [KCNA3] ?
Return: 2.5

Enquiry: Any idea what protein stability index was measured for LDHDIFQLIDPDENKENEAFEFKK [CDC25A] ?
Return: 4.13

Enquiry: Any idea what protein stability index was measured for AANKAVKCAEVIIPLLSSVNVSDR [ANKRD44] ?
Return: 2.98

Enquiry: Any idea what protein stability index was measured for SYSREHEGRLRYPSRREPPPRRSR [CLK3] ?
Return: 5.01

Enquiry: Any idea what protein stability index was measured for SQRAMLLQGTESLNRATQSIERSH [VTI1B] ?
Return: 4.35

Enquiry: Any idea what protein stability index was measured for EDRIVTQNRVFAYLCKRVPHTVLD [CEP70] ?
Return: 2.37

Enquiry: Any idea what protein stability index was measured for MITVQLPEVPANENIKGYYIIIVP [PTPRD] ?
Return: 2.99

Enquiry: Any idea what protein stability index was measured for GNDFTQNAGTGLVINQADVRNNRS [PLD5] ?
Return: 4.55

Enquiry: Any idea what protein stability index was measured for KLRFNRKKKGMYRKAITEAANAAR [PWWP2B] ?
Return: 3.29

Enquiry: Any idea what protein stability index was measured for DKMEGNPICVQIPWDKNPEALAKW [CRY1] ?
Return: 4.33

Enquiry: Any idea what protein stability index was measured for NGQKPLGAAEPITVKFANNPSQKT [ELAVL3] ?
Return: 4.83

Enquiry: Any idea what protein stability index was measured for CQQNMIQELIETNQQLRNELQLEQ [CEP70] ?
Return: 3.85
